system: Escherichia coli TOP10; test: shrunken log2 fold change of peptide-encoding DNA abundance (4.5 h post-induction vs induction); higher = less antimicrobial activity (less host growth inhibition); details: time post-induction: 4.5 h; library: site-saturation at positions 5, 18, 19, 20;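 further: peptides expressed intracellularly from a pBAD plasmid library in pooled LB shake-flask culture, induced with 0.3% L-arabinose, DNA abundance read by NGS, three biological replicates, DESeq2 with apeglm shrinkage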
Measured shrunken log2 fold change, listed per entry for reference.

| INPUT_SEQUENCE | shrunken log2 fold change |
| --- | --- |
| RRIRQRPPRLPRPRPRPFAFPRP | 0.087 |
| RRIRHRPPRLPRPRPRPCAEPRP | -0.228 |
| RRIRLRPPRLPRPRPRPEFGPRP | 0.07 |
| RRIRNRPPRLPRPRPRPLKNPRP | -0.234 |
| RRIRERPPRLPRPRPRPQAVPRP | 0.0552 |
| RRIRCRPPRLPRPRPRPIHWPRP | -0.363 |
| RRIRSRPPRLPRPRPRPVPKPRP | 0.232 |
| RRIRWRPPRLPRPRPRPMSKPRP | -0.133 |
| RRIRRRPPRLPRPRPRPTEHPRP | 0.0963 |
| RRIRVRPPRLPRPRPRPDMEPRP | 0.0238 |
| RRIRHRPPRLPRPRPRPCIAPRP | -0.46 |
| RRIRNRPPRLPRPRPRPQHLPRP | -0.517 |
| RRIRIRPPRLPRPRPRPIFIPRP | -0.317 |
| RRIRKRPPRLPRPRPRPVFAPRP | 2.02 |
| RRIRSRPPRLPRPRPRPHDDPRP | -0.114 |
